Tested on: 349418-098-R-PDC complex spheroid viability;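 further: spheroids exposed to compound for seven days before viability readout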
Test: Anticancer human tumor 349418-098-R-PDC patient-derived lung adenocarcinoma cell line growth inhibition [RAS]; active means viability on the fitted dose curve at most 10% of control; inactive means the rest
Conditions: second compound 1 µM; first compound 0.3 µM
Text: RAS pathway inhibitors in Combinations in Complex Spheroids A high-throughput screen of multi-cell type tumor spheroids was designed to identify active combinations of RAS pathway inhibitors and targeted small molecules. Complex spheroids include a stromal component modeled by human endothelial cells (HUVEC) and fibroblasts modeled by human mesenchymal stem cells (MSCs). […] Compounds. […] If the clinical Cmax for an agent had not been determined, the highest concentration tested was 10 microM. […]
Outcomes: active, inactive

COMPOUND	DISCRETE LABEL
CCc1c2c(nc3ccc(O)cc13)-c1cc3c(c(=O)n1C2)COC(=O)[C@]3(O)CC + C=CC(=O)N1CCN(c2nc(OCC3CCCN3C)nc3c(F)c(-c4nc(N)cc(C)c4C(F)(F)F)c(Cl)cc23)C(C)C1	active
CCc1c2c(nc3ccc(O)cc13)-c1cc3c(c(=O)n1C2)COC(=O)[C@]3(O)CC + C#Cc1c(F)ccc2cc(O)cc(-c3ncc4c(N5CC6CCC(C5)N6)nc(OCC56CCCN5CC(F)C6)nc4c3F)c12	active
CC1(C)CCC(Nc2ncc(C(F)(F)F)c(-c3c[nH]c4c(P(C)(C)=O)c(C#N)ccc34)n2)CN1 (centres undefined) + C=CC(=O)N1CCN(c2nc(OCC3CCCN3C)nc3c(F)c(-c4nc(N)cc(C)c4C(F)(F)F)c(Cl)cc23)C(C)C1	inactive
CC1(C)CCC(Nc2ncc(C(F)(F)F)c(-c3c[nH]c4c(P(C)(C)=O)c(C#N)ccc34)n2)CN1 (centres undefined) + C#Cc1c(F)ccc2cc(O)cc(-c3ncc4c(N5CC6CCC(C5)N6)nc(OCC56CCCN5CC(F)C6)nc4c3F)c12	inactive
